This collection of values is drawn from ChEMBL document CHEMBL1201862.

- subject_of_test: UniProtKB Q92731
- Sequence (Q92731 whole entry): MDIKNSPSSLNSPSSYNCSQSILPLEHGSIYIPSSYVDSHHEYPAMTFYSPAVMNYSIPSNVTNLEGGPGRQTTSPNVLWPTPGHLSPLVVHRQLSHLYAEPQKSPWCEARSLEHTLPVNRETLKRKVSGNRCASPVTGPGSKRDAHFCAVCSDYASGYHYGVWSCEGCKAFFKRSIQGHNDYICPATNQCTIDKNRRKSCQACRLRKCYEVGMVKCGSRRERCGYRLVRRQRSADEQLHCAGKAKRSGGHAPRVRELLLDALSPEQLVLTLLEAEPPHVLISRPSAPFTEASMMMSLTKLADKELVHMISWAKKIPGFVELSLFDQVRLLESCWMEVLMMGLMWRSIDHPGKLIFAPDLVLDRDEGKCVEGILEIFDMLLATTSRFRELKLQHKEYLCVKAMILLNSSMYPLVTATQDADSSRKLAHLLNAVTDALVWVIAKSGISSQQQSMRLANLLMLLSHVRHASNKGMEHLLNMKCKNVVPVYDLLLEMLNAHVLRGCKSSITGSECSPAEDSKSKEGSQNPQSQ
- assay_remarks: ERβ–SRC-3 coactivator interaction inhibitors, confirmation, orthogonal assay, biochemical, ELISA, streptavidin-HRP readout (AID 1060)
# IC50 annotations

The following compounds have reported results that may help.
compound	meas_value
CCCCCc1nnc(NC(=O)Cc2cccs2)s1	> 50000 nM (not active)
O=C(Nc1ccc(O)cc1)C1CC=CCC1 (stereo not given)	124 nM (not active)
CCn1cc(-c2cc(C(F)(F)F)n3nc(C(=O)O)cc3n2)c(C)n1	3410 nM (not active)
CCc1ccc(NC(=O)c2noc3c2CCC3)cc1	< 23 nM (not active)

Query: Reported IC50 for UniProtKB Q92731, given Cc1nnc(N2C(=O)c3oc4ccccc4c(=O)c3C2c2ccco2)s1 (stereo not given) ?
Result: 50.1 nM (not active)

* * *

- subject_of_test: Corticotropin-releasing factor receptor 2/Corticotropin-releasing factor-binding protein (Homo sapiens, UniProt P24387+Q13324)
- Sequence (Q13324 whole entry): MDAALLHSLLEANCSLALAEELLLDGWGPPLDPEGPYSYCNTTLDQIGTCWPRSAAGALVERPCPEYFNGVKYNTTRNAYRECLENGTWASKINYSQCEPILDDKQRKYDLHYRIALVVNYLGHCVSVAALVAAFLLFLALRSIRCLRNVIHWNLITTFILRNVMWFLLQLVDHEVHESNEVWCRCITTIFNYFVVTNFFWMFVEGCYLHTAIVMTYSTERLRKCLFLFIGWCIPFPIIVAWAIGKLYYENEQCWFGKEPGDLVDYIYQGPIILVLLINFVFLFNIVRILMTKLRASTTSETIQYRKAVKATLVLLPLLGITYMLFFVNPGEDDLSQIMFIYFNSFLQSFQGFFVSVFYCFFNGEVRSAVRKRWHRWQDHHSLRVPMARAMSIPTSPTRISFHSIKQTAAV
- Sequence (P24387 whole entry): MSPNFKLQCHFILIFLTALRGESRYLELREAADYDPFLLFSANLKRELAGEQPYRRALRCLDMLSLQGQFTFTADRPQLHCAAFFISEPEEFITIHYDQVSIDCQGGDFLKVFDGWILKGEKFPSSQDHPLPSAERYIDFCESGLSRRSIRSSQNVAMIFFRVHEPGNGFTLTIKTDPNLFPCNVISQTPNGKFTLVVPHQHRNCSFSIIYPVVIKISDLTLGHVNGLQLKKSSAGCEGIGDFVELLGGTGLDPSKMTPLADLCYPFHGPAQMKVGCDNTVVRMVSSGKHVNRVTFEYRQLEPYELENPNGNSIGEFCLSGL
- assay_remarks: Dose Response confirmation of uHTS hits for small molecule antagonists of the CRF-binding protein and CRF-R2 receptor complex.
- Format: functional
- stated_conditions: read-out: IC50_Mean
Calls of active or inactive are those of the source.
// one of label 1 for active, label 0 for inactive, no free text

Example cases with answers are listed next.
compound	class
CCOCCCN(CC(=O)NC1CCCC1)C(=O)C(=O)Nc1ccc2c(c1)OCCO2	label 0
Cn1ccc(C(=O)Nc2sc3c(c2C(N)=O)CCCCC3)n1	label 0
CCOC(=O)C1CCCN(S(=O)(=O)c2ccccc2)C1 (configuration not stated)	label 0
COc1cc(NC(=S)NCCC(c2ccccc2)c2ccccc2)c(OC)cc1Cl	label 1
Cc1ccccc1CN(C)C(=O)COC(=O)c1ccc2[nH]c(C)c(C)c2c1	label 0

Query: Short answer needed: outcome of this test for N#CNC(=Nc1cccc(F)c1)SCc1ccccc1 ?
Result: label 1

Query: Another: Cc1[nH]c2ccccc2c1SCCNC(=O)c1ccc(S(=O)(=O)N2CCCC2)cc1
Result: label 0

Query: Another: Cc1ccc2c(CC(=O)NCC(=O)Nc3c(C)cccc3C)coc2c1
Result: label 0

Query: Another: Cc1ccc(/C=N/n2c(S)nnc2-c2cccc(Cl)c2)o1
Result: label 1

Query: Another: Cc1cc([N+](=O)[O-])ccc1NCc1ccccc1
Result: label 1

Query: Another: Cc1ccc(C)c(N2CCN(S(=O)(=O)c3ccc4c(c3)C(C)(C)C(=O)N4C)CC2)c1
Result: label 1

Query: Another: COc1ccc(CN2CCCCC2C)cc1C (configuration not stated)
Result: label 1

* * *

- subject_of_test: Calpain-2 catalytic subunit (Sus scrofa, UniProt P43367)
- Sequence (P43367 whole entry): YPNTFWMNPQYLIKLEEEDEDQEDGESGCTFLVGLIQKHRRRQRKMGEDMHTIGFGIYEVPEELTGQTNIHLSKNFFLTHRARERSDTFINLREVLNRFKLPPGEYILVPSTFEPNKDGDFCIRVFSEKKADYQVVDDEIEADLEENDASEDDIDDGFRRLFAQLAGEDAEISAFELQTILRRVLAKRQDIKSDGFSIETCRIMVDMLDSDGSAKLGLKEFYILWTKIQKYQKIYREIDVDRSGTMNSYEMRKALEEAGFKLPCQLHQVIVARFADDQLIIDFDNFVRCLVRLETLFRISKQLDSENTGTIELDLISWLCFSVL
- assay_remarks: pig calpain II inhibitor potency, dose response, biochemical, fluorogenic peptide substrate (AID 1420)
- Format: functional
The source made the active and inactive calls.
measured_metric: IC50

The following compounds have reported results that may help.
compound	subject_of_test	meas_value
CCN(CC)S(=O)(=O)c1ccc(C(=O)NCc2ccc3c(c2)OCO3)cc1	Calpain-2 catalytic subunit (Sus scrofa, UniProt P43367)	> 50 µM (not active)
O=C1C[N+]([O-])=Cc2[nH]c3ccccc3c2N1c1ccc([N+](=O)[O-])cc1	Calpain-2 catalytic subunit (Sus scrofa, UniProt P43367)	4.76 µM (not active)
Cc1cc(Br)ccc1SCC(=O)OCC(=O)c1c(N)n(C)c(=O)n(C)c1=O	Calpain-2 catalytic subunit (Sus scrofa, UniProt P43367)	10.8 µM (active)
Cc1nn(-c2ccccc2)c2c1C(c1ccc(Br)s1)C(C#N)=C(N)O2 (stereo unspecified)	Calpain-2 catalytic subunit (Sus scrofa, UniProt P43367)	> 50 µM (not active)
Cc1ccc(-c2csc(/C=C3\SC(C)C(=O)N3CC(=O)Nc3ccccc3F)n2)cc1 (stereo unspecified)	Calpain-2 catalytic subunit (Sus scrofa, UniProt P43367)	10.6 µM (active)
CCCCCCCCO/C(O)=C1\C(C)=Nc2nnnn2C1c1cccs1 (stereo unspecified)	Calpain-2 catalytic subunit (Sus scrofa, UniProt P43367)	3.59 µM (not active)
Cc1ccc(-c2ccc([C@H]3[C@@H]4C=CCC[C@@]4(C)C(=O)N3Cc3ccccc3)c(F)c2)cc1	Calpain-2 catalytic subunit (Sus scrofa, UniProt P43367)	3.65 µM (not active)
O=C(CC1CC2CCC1C2)OCC(=O)c1c[nH]c2ccccc12 (stereo unspecified)	Calpain-2 catalytic subunit (Sus scrofa, UniProt P43367)	27.5 µM (not active)

Query: Reported IC50 for Calpain-2 catalytic subunit (Sus scrofa, UniProt P43367), given CCC(=O)OCC(=O)c1cc(C)n(-c2ccc(Br)cc2)c1C ?
Result: 6.49 µM (not active)

Query: Another: Cn1cc([N+](=O)[O-])c(C(=O)Nc2cc(Oc3cccnc3)cc([N+](=O)[O-])c2)n1
Result: 15.3 µM (not active)

Query: Another: COc1ccc(C(NC(=O)C(C)C)c2c(O)ccc3ccccc23)cc1OC (stereo unspecified)
Result: 18.4 µM (not active)

Query: Another: COc1ccc(S(=O)(=O)Oc2cccc(/C=N/NC3=NC(=O)C(CC(=O)O)S3)c2)cc1 (stereo unspecified)
Result: > 50 µM (not active)

Query: Another: COc1ccc(C(=O)Nc2ccc(S(=O)(=O)NC(C)(C)C)cc2)cc1[N+](=O)[O-]
Result: 4.14 µM (not active)

Query: Another: CSCCC(NS(=O)(=O)c1ccc(Cl)cc1)C(=O)OCC(=O)N1CCCc2ccccc21 (stereo unspecified)
Result: 14.6 µM (not active)

Query: Another: CC(OC(=O)c1ccccc1Nc1ccc(SC(F)F)cc1)C(N)=O (stereo unspecified)
Result: 12 µM (not active)

Query: Another: Cc1ncsc1CCOC(=O)C1C2CC3CC(C2)CC1C3 (stereo unspecified)
Result: 45.8 µM (not active)

* * *

# IC50 annotations
- subject_of_test: Carboxy-terminal domain RNA polymerase II polypeptide A small phosphatase 1 (Homo sapiens, UniProt Q9GZU7)
- Sequence (Q9GZU7 whole entry, the tested form may be a part): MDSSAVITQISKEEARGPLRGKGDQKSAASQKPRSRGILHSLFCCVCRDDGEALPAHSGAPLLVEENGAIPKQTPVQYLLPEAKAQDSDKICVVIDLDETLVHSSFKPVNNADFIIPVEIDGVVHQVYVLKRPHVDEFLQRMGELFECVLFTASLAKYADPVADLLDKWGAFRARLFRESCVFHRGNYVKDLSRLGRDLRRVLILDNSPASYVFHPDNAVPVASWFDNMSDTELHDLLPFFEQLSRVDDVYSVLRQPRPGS
- assay_remarks: inhibitors of CTDSP1, concentration-response testing, biochemical assay, absorbance-based, actives from ultra-high-throughput screening (AID 540297)
- Type: functional
Calls of active or inactive are those of the source.

Cc1ccc(CCCOC(=O)C[N+]2(C)CCCC2)cc1 11 µM (active)

Query: What IC50 value was documented for this compound, N=C1/C(=C\c2ccc(Br)o2)C(=O)N=C2SC(CC(=O)N3CCOCC3)=NN12 ?
Result: 18.3 µM (active)

Query: Another: C/C(=N\NC(=O)c1ccccc1O)c1ccc(NC(=O)c2ccccc2)cc1
Result: 7.56 µM (active)

Query: Another: N#Cc1ccccc1CN1C(=O)S/C(=C/c2cccn2-c2ccc(C(=O)O)cc2)C1=O
Result: 5.85 µM (active)

* * *

- subject_of_test: Zinc finger protein mex-5 (Caenorhabditis elegans)
- Sequence (Q9XUB2 whole entry): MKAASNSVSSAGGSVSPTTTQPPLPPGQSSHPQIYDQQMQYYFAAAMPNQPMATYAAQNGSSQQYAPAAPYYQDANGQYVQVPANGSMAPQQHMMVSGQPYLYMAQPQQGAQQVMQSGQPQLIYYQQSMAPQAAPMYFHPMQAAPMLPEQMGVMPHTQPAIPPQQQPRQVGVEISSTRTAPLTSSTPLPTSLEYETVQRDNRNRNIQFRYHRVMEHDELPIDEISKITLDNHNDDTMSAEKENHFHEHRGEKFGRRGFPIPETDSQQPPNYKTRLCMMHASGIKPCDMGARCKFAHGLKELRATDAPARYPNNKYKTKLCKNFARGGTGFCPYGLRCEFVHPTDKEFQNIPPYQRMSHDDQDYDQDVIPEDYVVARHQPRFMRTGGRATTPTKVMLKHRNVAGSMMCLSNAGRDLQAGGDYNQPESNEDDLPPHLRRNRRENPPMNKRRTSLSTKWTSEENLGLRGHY
- assay_remarks: MEX-5/TCR-2 RNA interaction inhibitors, dose response, biochemical, C. elegans, fluorescence polarization (AID 1960)
Activity calls are given as the source filed them.
measured_metric: EC50

molecule	EC50
N#Cc1ccccc1CN1C(=O)S/C(=C/c2cccn2-c2ccc(C(=O)O)cc2)C1=O	44 µM (active)
C(#Cc1ccc2c(c1)COc1c3ccccc3nn1-2)c1ccccc1	169 µM (active)
COc1ccccc1NCC(=O)N/N=C/c1c(O)ccc2ccccc12	> 150 µM (not active)
N=c1c(C(=O)NCCN2CCOCC2)cc2c(=O)n3ccccc3nc2n1CCc1ccccc1	> 300 µM (not active)
Oc1ccc2ccccc2c1/C=N/Nc1nnc(-c2ncc[nH]2)c2ccccc12	2.45 µM (active)
CC(C)C1Nc2c(O)cc(Cl)c([N+](=O)[O-])c2C2C=CCC21 (stereo not drawn)	58.5 µM (active)
Cc1cc([N+](=O)[O-])nn1CC(=O)NNC(=S)Nc1ccc([N+](=O)[O-])cc1	5.47 µM (active)
N#C/C(=C/c1cccn1-c1cccc(C(=O)O)c1)c1ccc(F)cc1	> 300 µM (not active)
Cc1cc(/C=C2\SC(=O)N(C)C2=O)c(C)n1-c1cccc(C(=O)O)c1	> 300 µM (not active)
CCNC(=O)c1cc2c(=O)n3cccc(C)c3nc2n(CCc2ccccc2)c1=N	30 µM (active)

Query: What EC50 value was documented for this molecule, CC(C)C(C(=O)O)N1C(=O)/C(=C/C=C/c2ccco2)SC1=S (stereo not drawn) ?
Result: 19.4 µM (inconclusive)

Query: Another: CN1C(=O)/C(=C/c2ccc3c(c2)OCO3)N=C1c1ccccc1
Result: 75.1 µM (inconclusive)

Query: Another: COc1cc(/N=C/c2c(O)oc3ccccc3c2=O)c(OC)cc1Cl
Result: > 300 µM (inconclusive)

Query: Another: O=C1CS/C(=C\[N+](=O)[O-])N1c1ccccc1
Result: 190 µM (active)

Query: Another: CCN1C(=O)/C(=C2/C=Cc3ccccc3N2C)OC1=S
Result: 3.94 µM (inconclusive)

Query: Another: O=C(CC1Nc2ccccc2NC1=O)c1ccccc1 (stereo not drawn)
Result: 103 µM (active)

Query: Another: O=C1C2CC=C(Cl)CC2C(=O)N1CCc1ccccc1 (stereo not drawn)
Result: 20.6 µM (active)

Query: Another: Cc1ccc(NC(=O)CSc2nccc(=O)[nH]2)c(S(=O)(=O)N2CCOCC2)c1
Result: > 300 µM (not active)
